The measurements presented in this section are drawn from paper PMC10447463.

The entries below come with measured Number of Aggregates / Aggregate Number values attached.
test: Aggregate analysis by widefield fluorescence microscopy; type: physicochemical; settings: ThT-stained aggregates > 10 µm2 in 1330 µm × 1330 µm; 1 mg/mL 1 d, diluted to 0.1 mg/mL with 50 µM ThT; 3D object counter ImageJ, triplicate

substance: CSISIQI
Number of Aggregates / Aggregate Number: 123

substance: HIHIQIC
Number of Aggregates / Aggregate Number: 33

substance: CKFKFQFNM
Number of Aggregates / Aggregate Number: 170

substance: HHHHKIKIKIKIWWWW
Number of Aggregates / Aggregate Number: 446

substance: CKIKQIINMWQ
Number of Aggregates / Aggregate Number: 195

substance: QCKIKQIINMWQ [reference compound]
Number of Aggregates / Aggregate Number: 408

substance: CQFQFQF
Number of Aggregates / Aggregate Number: 46

substance: KIKIQIC
Number of Aggregates / Aggregate Number: 82

substance: KIKQIINMWQ
Number of Aggregates / Aggregate Number: 39

substance: CKFKFQF
Number of Aggregates / Aggregate Number: 128

substance: KIKQIIN
Number of Aggregates / Aggregate Number: 12

substance: RGDSGGGGGGKIKIQIC
Number of Aggregates / Aggregate Number: 72

substance: CHLHLQL
Number of Aggregates / Aggregate Number: 36

substance: KFKFQFNMWQ
Number of Aggregates / Aggregate Number: 64

substance: HHHHKIKIQINMYYYY
Number of Aggregates / Aggregate Number: 234

substance: CKFKFQFW
Number of Aggregates / Aggregate Number: 517

substance: HHHHKIKIKIKIYYYY
Number of Aggregates / Aggregate Number: 147

substance: QCKIKIQINMWQ
Number of Aggregates / Aggregate Number: 398

substance: CKAKAQANMWQ
Number of Aggregates / Aggregate Number: 6

substance: CKWKWQW
Number of Aggregates / Aggregate Number: 87

substance: KWKWQW
Number of Aggregates / Aggregate Number: 28
